Each recorded value in this set is attributed to patent EP0481522B1.

# targetOrTestSystem: ACE (Homo sapiens, UniProt P12821)
# Sequence (P12821 30-1306, species assumed): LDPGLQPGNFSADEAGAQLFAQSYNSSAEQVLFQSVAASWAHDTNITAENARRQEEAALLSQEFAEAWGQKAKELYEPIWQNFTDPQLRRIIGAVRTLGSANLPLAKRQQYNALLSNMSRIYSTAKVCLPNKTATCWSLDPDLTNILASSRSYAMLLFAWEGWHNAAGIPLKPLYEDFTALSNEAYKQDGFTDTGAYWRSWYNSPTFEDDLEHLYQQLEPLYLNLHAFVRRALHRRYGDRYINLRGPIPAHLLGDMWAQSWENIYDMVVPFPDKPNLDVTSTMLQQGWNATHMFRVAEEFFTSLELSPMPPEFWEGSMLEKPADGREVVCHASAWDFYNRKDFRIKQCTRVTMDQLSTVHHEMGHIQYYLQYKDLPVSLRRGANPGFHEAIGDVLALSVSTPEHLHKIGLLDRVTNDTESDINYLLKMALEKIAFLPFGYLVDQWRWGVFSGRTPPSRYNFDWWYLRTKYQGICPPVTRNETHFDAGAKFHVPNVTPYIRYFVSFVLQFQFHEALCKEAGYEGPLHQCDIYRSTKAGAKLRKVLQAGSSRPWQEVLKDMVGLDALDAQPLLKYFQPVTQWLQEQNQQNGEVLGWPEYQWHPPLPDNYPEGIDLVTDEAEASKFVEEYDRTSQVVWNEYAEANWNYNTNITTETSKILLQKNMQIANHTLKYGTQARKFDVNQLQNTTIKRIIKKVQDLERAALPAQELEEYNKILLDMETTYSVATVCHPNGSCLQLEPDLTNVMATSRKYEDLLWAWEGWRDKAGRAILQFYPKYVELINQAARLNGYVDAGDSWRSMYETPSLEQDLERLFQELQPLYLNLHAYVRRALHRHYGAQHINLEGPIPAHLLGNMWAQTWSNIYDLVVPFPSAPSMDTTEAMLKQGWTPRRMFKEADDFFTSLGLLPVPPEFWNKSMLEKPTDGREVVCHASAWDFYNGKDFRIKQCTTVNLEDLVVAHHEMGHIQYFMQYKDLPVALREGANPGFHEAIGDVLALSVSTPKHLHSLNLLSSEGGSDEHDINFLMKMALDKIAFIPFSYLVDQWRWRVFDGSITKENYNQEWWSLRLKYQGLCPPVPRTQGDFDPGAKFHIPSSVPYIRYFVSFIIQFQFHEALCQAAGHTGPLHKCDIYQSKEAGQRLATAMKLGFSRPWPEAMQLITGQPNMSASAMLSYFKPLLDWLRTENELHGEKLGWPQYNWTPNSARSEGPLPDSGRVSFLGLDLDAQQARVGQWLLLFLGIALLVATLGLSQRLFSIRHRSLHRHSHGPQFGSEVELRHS
readoutName: Ki

// for each compound below, give its Ki
1. O=C(N[C@H]1Cc2ccccc2[C@H]2COC[C@@H](C(=O)O)N2C1=O)[C@@H](S)Cc1ccccc1 (relative stereo)
2. O=C(N[C@H]1Cc2ccccc2[C@H]2CCC[C@@H](C(=O)O)N2C1=O)C(S)c1ccccc1 (relative stereo)
3. CC(=O)S[C@@H](Cc1ccccc1)C(=O)N[C@H]1Cc2ccccc2[C@H]2COC[C@@H](C(=O)O)N2C1=O (relative stereo)

OUT:
1: < 7 nM; 2: 2.1 nM; 3: < 7 nM

----------
# targetOrTestSystem: Enkephalinase (Rattus norvegicus)
# Sequence (P07861 1-750): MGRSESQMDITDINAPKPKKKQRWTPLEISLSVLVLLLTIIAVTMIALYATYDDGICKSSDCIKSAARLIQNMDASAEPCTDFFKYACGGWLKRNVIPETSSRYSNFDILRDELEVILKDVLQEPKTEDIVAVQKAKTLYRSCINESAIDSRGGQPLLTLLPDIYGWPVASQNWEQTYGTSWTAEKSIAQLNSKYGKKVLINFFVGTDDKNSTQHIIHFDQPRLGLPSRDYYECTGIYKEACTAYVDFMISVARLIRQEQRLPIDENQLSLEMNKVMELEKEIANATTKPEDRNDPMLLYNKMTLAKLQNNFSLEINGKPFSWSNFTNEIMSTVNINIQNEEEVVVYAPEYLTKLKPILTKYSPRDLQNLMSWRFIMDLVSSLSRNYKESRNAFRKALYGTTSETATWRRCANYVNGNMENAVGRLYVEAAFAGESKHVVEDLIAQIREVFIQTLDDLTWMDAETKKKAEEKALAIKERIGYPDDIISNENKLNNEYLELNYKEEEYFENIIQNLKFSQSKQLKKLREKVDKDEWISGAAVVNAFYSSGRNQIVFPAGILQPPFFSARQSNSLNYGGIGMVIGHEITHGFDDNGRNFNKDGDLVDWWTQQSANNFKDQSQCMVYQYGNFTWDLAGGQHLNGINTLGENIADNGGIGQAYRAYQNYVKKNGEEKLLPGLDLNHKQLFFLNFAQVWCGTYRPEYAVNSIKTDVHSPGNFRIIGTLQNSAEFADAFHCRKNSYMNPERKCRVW
readoutName: Ki (nM)
One number for each entry, in nM.

// sample O=C(N[C@H]1Cc2ccccc2[C@H]2CCC[C@@H](C(=O)O)N2C1=O)C(S)c1ccccc1 (relative stereo) , its Ki was 1
